procedureText: Inhibition of alpha-glucosidase (unknown origin) using p-nitrophenyl-alpha-D-glucopyranoside as substrate incubated for 15 to 25 mins by spectrophotometric analysis
Design: species or system Homo sapiens
// values below are reported pIC50
Formally, pIC50 is defined as -log10 of the concentration c, with c in mol/L.

Below: 2 compounds and their reported pIC50.
CC(=O)Nc1ccc(O)c(/N=N/c2ccc(S(=O)(=O)Nc3cc(C)on3)cc2)c1 = 4.74
C[C@H]1O[C@H](O[C@H]2[C@H](O)[C@@H](O)[C@@H](O[C@H]3[C@H](O)[C@@H](O)C(O)O[C@@H]3CO)O[C@@H]2CO)[C@H](O)[C@@H](O)[C@@H]1N[C@H]1C=C(CO)[C@@H](O)[C@H](O)[C@H]1O (some centres undefined) = 5.91

What pIC50 value was documented for this compound, CC(=O)Nc1ccc(O)c(/N=N/c2ccc(S(=O)(=O)NC(=N)N)cc2)c1 ?
4.02

Follow-up entry: CC(=O)Nc1ccc(O)c(/N=N/c2ccc(S(=O)(=O)Nc3noc(C)c3C)cc2)c1
5.53

* * *

Catalogue of inhibition values
Species: Homo sapiens
procedureText: Inhibition of alpha-glucosidase (unknown origin) at 100 ug/ml using p-nitrophenyl-alpha-D-glucopyranoside as substrate incubated for 15 to 25 mins by spectrophotometric analysis relative to control
measurementContext: dose 100.0 µg/ml, time 15-25 min
Field: numeric (%). Do not append units.

In the examples that follow, each entry is paired with its recorded inhibition.
CC(=O)Nc1ccc(O)c(/N=N/c2ccc(S(=O)(=O)Nc3nccs3)cc2)c1 = 93.4
CC(=O)Nc1ccc(O)c(/N=N/c2ccc(S(=O)(=O)Nc3noc(C)c3C)cc2)c1 = 95.6
CC(=O)Nc1ccc(O)c(/N=N/c2ccc(S(=O)(=O)Nc3ncccn3)cc2)c1 = 95.7

Could you tell me which inhibition is on file for CC(=O)Nc1ccc(O)c(/N=N/c2ccc(S(=O)(=O)NC(=N)N)cc2)c1 ?
91

What do you get for CC(=O)Nc1ccc(O)c(/N=N/c2ccc(S(=O)(=O)Nc3nc(C)cc(C)n3)cc2)c1 ?
94.1

* * *

Species on record: Homo sapiens
procedureText: Inhibition of alpha-glucosidase (unknown origin) at 100 ug/ml using p-nitrophenyl-alpha-D-glucopyranoside as substrate incubated for 15 to 25 mins by spectrophotometric analysis relative to control
measurementContext: dose 100.0 µg/ml, time 15-25 min
The following compounds are shown together with reported inhibition values.
# number then unit; no other words

Consider the reported inhibition for these compounds:
CC(=O)Nc1ccc(O)c(/N=N/c2ccc(S(N)(=O)=O)cc2)c1 = 93.6%
CC(=O)Nc1ccc(O)c(/N=N/c2ccc(S(=O)(=O)Nc3ccc(Cl)nn3)cc2)c1 = 94.2%
C[C@H]1O[C@H](O[C@H]2[C@H](O)[C@@H](O)[C@@H](O[C@H]3[C@H](O)[C@@H](O)C(O)O[C@@H]3CO)O[C@@H]2CO)[C@H](O)[C@@H](O)[C@@H]1N[C@H]1C=C(CO)[C@@H](O)[C@H](O)[C@H]1O (some centres undefined) = 95.8%

// lookup inhibition for CC(=O)Nc1ccc(O)c(/N=N/c2ccc(S(=O)(=O)Nc3cc(C)on3)cc2)c1
92.6%
